Provide the recorded EC50 for the entries that follow.
Biological target: T1, Recombinant human B7-2/CD86 Fc chimera (Cat. 141-B2-100, R&D Systems) (human, UniProt P42081 26-245)
T1 construct: Fc part of the bought chimera not given; not described
T1 sequence (looked up): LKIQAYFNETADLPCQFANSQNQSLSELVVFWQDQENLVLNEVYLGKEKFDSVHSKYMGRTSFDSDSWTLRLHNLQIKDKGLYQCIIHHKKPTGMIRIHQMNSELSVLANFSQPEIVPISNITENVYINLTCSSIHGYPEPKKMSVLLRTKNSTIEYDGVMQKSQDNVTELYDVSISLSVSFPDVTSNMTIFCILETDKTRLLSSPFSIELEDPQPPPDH
Assay: competitive ELISA; coated CD28 Fc, biotinylated B7-2/CD86 Fc, construct titrated
Protocol: ELISA plates (Nunc, MaxiSorp, Rochester, N.Y.) were incubated overnight at 4° C. with Recombinant Human CD28 Fc Chimera (Cat. #342-CD-200). Plates were washed three times in washing buffer (PBS containing 0.05% Tween 20), and blocked for 1 hour at 25° C. in blocking buffer (PBS containing 1% BSA). […] Following color development the reaction was stopped with 1N HCL and absorbance at 450 nm was measured. […]
Give the number; nM is assumed, so skip it.

Q: Quick check: EC50 of RAB020 (other, rDVD-Ig with LEA29Y on the heavy chain only and a QH linker; also called RAB020H; RAB020L) VH: AMHVAQPAVVLASSRGIASFVCEYASPGKYTEVRVTVLRQADSQVTEVCAATYMMGNELTFLDDSICTGTSSGNQVNLTIQGLRAMDTGLYICKVELMYPPPYYEGIGNGTQIYVIDPEPCPDSDQEPKSSDKTHTSPEVQLVQSGAEVKKPGASVKVSCKASGYTFTKYWLGWVRQAPGQGLEWMGDIYPGYDYTHYNEKFKDRVTLTTDTSTSTAYMELRSLRSDDTAVYYCARSDGSSTYWGQGTLVTVSS VL: DVLMTQTPLSLPVTPGEPASISCTSSQNIVHSNGNTYLEWYLQKPGQSPQLLIYKVSNRFSGVPDRFSGSGSGTDFTLKISRVEAEDVGVYYCFQVSHVPYTFGGGTKVEIKR ?
Result: 1

Q: Requested field: EC50. Item: RAB012 (other, rDVD-Ig with LEA29Y on the light chain only and anti-NGF variable domains; also called RAB012H; RAB012L) VH: QVQLQESGPGLVKPSETLSLTCTVSGFSLIGYDLNWIRQPPGKGLEWIGIIWGDGTTDYNSAVKSRVTISKDTSKNQFSLKLSSVTAADTAVYYCARGGYWYATSYYFDYWGQGTLVTVSS VL: AMHVAQPAVVLASSRGIASFVCEYASPGKYTEVRVTVLRQADSQVTEVCAATYMMGNELTFLDDSICTGTSSGNQVNLTIQGLRAMDTGLYICKVELMYPPPYYEGIGNGTQIYVIDPEPCPDSDTVAAPDIQMTQSPSSLSASVGDRVTITCRASQSISNNLNWYQQKPGKAPKLLIYYTSRFHSGVPSRFSGSGSGTDFTFTISSLQPEDIATYYCQQEHTLPYTFGQGTKLEIKR
Result: 4.2

Q: Give its EC50 value. Item: RAB009 (other, rDVD-Ig with LEA29Y on the light chain only; also called RAB009H; RAB009L) VH: EVQLVQSGAEVKKPGASVKVSCKASGYTFTKYWLGWVRQAPGQGLEWMGDIYPGYDYTHYNEKFKDRVTLTTDTSTSTAYMELRSLRSDDTAVYYCARSDGSSTYWGQGTLVTVSS VL: AMHVAQPAVVLASSRGIASFVCEYASPGKYTEVRVTVLRQADSQVTEVCAATYMMGNELTFLDDSICTGTSSGNQVNLTIQGLRAMDTGLYICKVELMYPPPYYEGIGNGTQIYVIDPEPCPDSDTVAAPDVLMTQTPLSLPVTPGEPASISCTSSQNIVHSNGNTYLEWYLQKPGQSPQLLIYKVSNRFSGVPDRFSGSGSGTDFTLKISRVEAEDVGVYYCFQVSHVPYTFGGGTKVEIKR
Result: 0.3

The measurements presented in this section are drawn from patent US20140219913A1.
